# Tested on: P388 leukemia ip, CD2F1 mice, survival T/C
# assay.procedure: NCI In Vivo Anticancer Drug Screen. Data for tumor model P388 Leukemia (intraperitoneal) in CD2F1 (CDF1) mice
# experimental.conditions: endpoint: median survival time; dose: 200.0 mg/kg/injection; schedule: Q01DX009 (ip); vehicle: saline with Tween-80; higher = longer survival
Toxic doses and inconclusive results are not listed.
measurement.kind: T/C

CCOC(=O)c1ccc(NC(=O)Nc2ncc(Cl)cc2Cl)cc1 | 94 % of control
CCCCCCCCC#CCCCCCCCCCCCC(=O)O | 90 % of control
CCCC(=O)Nc1nc2ccc([N+](=O)[O-])cc2s1 | 108 % of control
